Measured values drawn from ChEMBL document CHEMBL5357068 for this set.

test system: Blood; assay: Induction of IP-10 secretion in mouse whole blood; assay type: functional, tissue-based
readout-kind: EC50
Mention the unit after the number when you answer.

Q: Report the value of EC50 obtained on Blood for CCC[C@@H](CCO)Nc1nc(N)nc2cnn(Cc3ccc(CNC4CCOCC4)cc3OC)c12 .
Ans: 0.32 nM

----------
system: Blood; assay: Induction of IP-10 secretion in human whole blood; format: functional, tissue-based
readout-kind: EC50

Q: Note down EC50 recorded for CCC[C@@H](CCO)Nc1nc(N)nc2cnn(Cc3ccc(CNC4CCOCC4)cc3OC)c12
Ans: 0.13 nM

----------
assay: Permeability of compound at pH 5.5 by PAMPA; type: ADME; conditions: read-out: permeability
readout-kind: Papp

Q: Note down Papp recorded for CCC[C@@H](CCO)Nc1nc(N)nc2cnn(Cc3ccc(CNC4CCOCC4)cc3OC)c12
Ans: 0.95 ×10⁻⁶ cm/s

----------
experiment: Metabolic stability in mouse liver microsomes assessed as half-life; type: ADME, Microsome
readout-kind: half-life (h)
Give the value in h but do not write h after it.

Q: Note down half-life recorded for CCC[C@@H](CCO)Nc1nc(N)nc2cnn(Cc3ccc(CNC4CCOCC4)cc3OC)c12
Ans: 1.42

----------
test: Protein binding in human plasma assessed as free fraction; format: ADME, cell-free
readout-kind: fraction unbound

Q: Note down fraction unbound recorded for CCC[C@@H](CCO)Nc1nc(N)nc2cnn(Cc3ccc(CNC4CCOCC4)cc3OC)c12
Ans: 0.5

----------
test: Permeability of compound across apical to basolateral side in human Caco-2 cells; format: ADME, cell-based; settings: read-out: permeability
readout-kind: Papp A→B (×10⁻⁶ cm/s)
Give the value in ×10⁻⁶ cm/s but do not write ×10⁻⁶ cm/s after it.

Q: Note down Papp A→B recorded for CCC[C@@H](CCO)Nc1nc(N)nc2cnn(Cc3ccc(CNC4CCOCC4)cc3OC)c12
Ans: 1.4

----------
target: Voltage-gated inwardly rectifying potassium channel KCNH2 (Homo sapiens, UniProt Q12809); experiment: Inhibition of hERG by patch clamp assay
Sequence (Q12809 whole entry): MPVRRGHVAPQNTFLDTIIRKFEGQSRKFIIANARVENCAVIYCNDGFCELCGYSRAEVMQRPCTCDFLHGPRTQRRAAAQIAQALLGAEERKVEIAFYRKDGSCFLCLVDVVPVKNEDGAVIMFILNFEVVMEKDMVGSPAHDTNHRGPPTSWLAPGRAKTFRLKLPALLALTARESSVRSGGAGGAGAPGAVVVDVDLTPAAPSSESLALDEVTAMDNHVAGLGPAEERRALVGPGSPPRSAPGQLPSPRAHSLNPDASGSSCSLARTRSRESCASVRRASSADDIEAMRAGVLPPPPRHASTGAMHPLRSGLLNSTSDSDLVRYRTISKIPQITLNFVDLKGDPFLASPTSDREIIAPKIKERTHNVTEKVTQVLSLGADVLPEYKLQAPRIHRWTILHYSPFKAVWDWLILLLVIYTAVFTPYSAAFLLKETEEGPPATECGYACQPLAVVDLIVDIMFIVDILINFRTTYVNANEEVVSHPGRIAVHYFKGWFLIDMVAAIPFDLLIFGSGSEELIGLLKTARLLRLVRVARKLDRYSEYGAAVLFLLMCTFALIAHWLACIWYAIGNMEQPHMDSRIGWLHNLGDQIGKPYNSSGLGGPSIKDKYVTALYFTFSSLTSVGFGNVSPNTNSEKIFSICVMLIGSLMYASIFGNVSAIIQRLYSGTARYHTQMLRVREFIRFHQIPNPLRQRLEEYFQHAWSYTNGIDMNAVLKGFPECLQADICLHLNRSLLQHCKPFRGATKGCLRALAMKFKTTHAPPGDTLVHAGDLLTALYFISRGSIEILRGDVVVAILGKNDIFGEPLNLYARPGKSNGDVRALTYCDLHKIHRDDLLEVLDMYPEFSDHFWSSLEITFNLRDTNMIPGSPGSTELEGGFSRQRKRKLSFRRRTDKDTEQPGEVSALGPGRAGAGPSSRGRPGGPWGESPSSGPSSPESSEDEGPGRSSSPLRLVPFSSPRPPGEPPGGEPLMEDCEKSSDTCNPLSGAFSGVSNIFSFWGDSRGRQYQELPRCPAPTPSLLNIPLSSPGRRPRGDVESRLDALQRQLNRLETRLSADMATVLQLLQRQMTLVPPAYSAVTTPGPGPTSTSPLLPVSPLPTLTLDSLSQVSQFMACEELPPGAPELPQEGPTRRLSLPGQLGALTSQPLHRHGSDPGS
Below, each entry is listed alongside its reported IC50.

Q: Note down IC50 recorded for COc1cc(CNC2CCOCC2)ccc1Cn1ncc2nc(N)nc(N[C@H](CCO)C3CC3)c21
Ans: > 50 µM

Q: Note down IC50 recorded for CC[C@@H](CCO)Nc1nc(N)nc2cnn(Cc3ccc(CNC4CCOCC4)cc3OC)c12
Ans: > 50 µM

Q: Note down IC50 recorded for CCC[C@@H](CCO)Nc1nc(N)nc2cnn(Cc3ccc(CNC4CCOCC4)cc3OC(F)F)c12
Ans: 30.4 µM

Q: Note down IC50 recorded for CCC[C@@H](CCO)Nc1nc(N)nc2cnn(Cc3ccc(CNC4CCOCC4)cc3OC)c12
Ans: ≥ 45 µM

Q: Note down IC50 recorded for COc1cc(CNC2CCOCC2)ccc1Cn1ncc2nc(N)nc(N[C@H](CCO)C(C)C)c21
Ans: > 50 µM

----------
system: Blood; assay: Induction of MX1 secretion in mouse whole blood; format: functional, tissue-based
readout-kind: EC50 (pM)
Give the value in pM but do not write pM after it.

Q: Note down EC50 recorded for CCC[C@@H](CCO)Nc1nc(N)nc2cnn(Cc3ccc(CNC4CCOCC4)cc3OC)c12
Ans: 180

----------
Below, each entry is listed alongside its reported Stability.
test: Metabolic stability in mouse liver microsomes assessed as compound remaining; assay type: ADME, Microsome
Give the value in % but do not write % after it.

// known answers, use as guide
| substance-smiles | Stability (%) |
| --- | --- |
| CCCCNc1nc(N)nc2cnn(Cc3ccc(CN4CC5(CNC5)C4)cc3OC)c12 | 100 |
| CC[C@@H](CCO)Nc1nc(N)nc2cnn(Cc3ccc(CNC4CCOCC4)cc3OC)c12 | 84 |
| CCC[C@@H](CCO)Nc1nc(N)nc2cnn(Cc3ccc(CNC4CCOCC4)cc3)c12 | 91 |
| COc1cc(CNC2CCOCC2)ccc1Cn1ncc2nc(N)nc(N[C@H](CCO)C3CC3)c21 | 87 |
| CCC[C@@H](CCO)Nc1nc(N)nc2cnn(Cc3ccc(CNC4CCOCC4)c4cccnc34)c12 | 56 |

Q: Note down Stability recorded for CCCCNc1nc(N)nc2cnn(Cc3ccc(CNCc4ccncc4)cc3OC)c12
Ans: 3

Q: Note down Stability recorded for CCC[C@@H](CCO)Nc1nc(N)nc2cnn(Cc3cnc(CNC4CCOCC4)cc3OC)c12
Ans: 87

Q: Note down Stability recorded for CCC[C@@H](CCO)Nc1nc(N)nc2cnn(Cc3ncc(CNC4CCOCC4)cc3OC)c12
Ans: 93

Q: Note down Stability recorded for CCCCNc1nc(N)nc2cnn(Cc3ccc(CNC4COC4)cc3OC)c12
Ans: 46

Q: Note down Stability recorded for COc1cc(CNC2CCOCC2)ccc1Cn1ncc2nc(N)nc(N[C@H](CCO)C(C)C)c21
Ans: 63

Q: Note down Stability recorded for CCCCNc1nc(N)nc2cnn(Cc3ccc(CN4CCOCC4)cc3OC)c12
Ans: 15

Q: Note down Stability recorded for CCC[C@@H](CCO)Nc1nc(N)nc2cnn(Cc3ccc(CNC4CCOCC4)cc3F)c12
Ans: 91

Q: Note down Stability recorded for CCCCNc1nc(N)nc2cnn(Cc3ccc(Cn4ccnc4)cc3OC)c12
Ans: 26

Q: Note down Stability recorded for CCC[C@@H](CCO)Nc1nc(N)nc2cnn(Cc3ccc(CNC4CCOCC4)cc3OC)c12
Ans: 81

Q: Note down Stability recorded for CCCCNc1nc(N)nc2cnn(Cc3ccc(CN4CCNCC4)cc3OC)c12
Ans: 60

Q: Note down Stability recorded for COc1cc(CNC2CCOCC2)ccc1Cn1ncc2nc(N)nc(N[C@@H](C)CCO)c21
Ans: 100

Q: Note down Stability recorded for CCCCNc1nc(N)nc2cnn(Cc3ccc(CNC4CCOCC4)cc3OC)c12
Ans: 25

----------
target: Toll-like receptor 7 (Homo sapiens)
Sequence (Q9NYK1 whole entry): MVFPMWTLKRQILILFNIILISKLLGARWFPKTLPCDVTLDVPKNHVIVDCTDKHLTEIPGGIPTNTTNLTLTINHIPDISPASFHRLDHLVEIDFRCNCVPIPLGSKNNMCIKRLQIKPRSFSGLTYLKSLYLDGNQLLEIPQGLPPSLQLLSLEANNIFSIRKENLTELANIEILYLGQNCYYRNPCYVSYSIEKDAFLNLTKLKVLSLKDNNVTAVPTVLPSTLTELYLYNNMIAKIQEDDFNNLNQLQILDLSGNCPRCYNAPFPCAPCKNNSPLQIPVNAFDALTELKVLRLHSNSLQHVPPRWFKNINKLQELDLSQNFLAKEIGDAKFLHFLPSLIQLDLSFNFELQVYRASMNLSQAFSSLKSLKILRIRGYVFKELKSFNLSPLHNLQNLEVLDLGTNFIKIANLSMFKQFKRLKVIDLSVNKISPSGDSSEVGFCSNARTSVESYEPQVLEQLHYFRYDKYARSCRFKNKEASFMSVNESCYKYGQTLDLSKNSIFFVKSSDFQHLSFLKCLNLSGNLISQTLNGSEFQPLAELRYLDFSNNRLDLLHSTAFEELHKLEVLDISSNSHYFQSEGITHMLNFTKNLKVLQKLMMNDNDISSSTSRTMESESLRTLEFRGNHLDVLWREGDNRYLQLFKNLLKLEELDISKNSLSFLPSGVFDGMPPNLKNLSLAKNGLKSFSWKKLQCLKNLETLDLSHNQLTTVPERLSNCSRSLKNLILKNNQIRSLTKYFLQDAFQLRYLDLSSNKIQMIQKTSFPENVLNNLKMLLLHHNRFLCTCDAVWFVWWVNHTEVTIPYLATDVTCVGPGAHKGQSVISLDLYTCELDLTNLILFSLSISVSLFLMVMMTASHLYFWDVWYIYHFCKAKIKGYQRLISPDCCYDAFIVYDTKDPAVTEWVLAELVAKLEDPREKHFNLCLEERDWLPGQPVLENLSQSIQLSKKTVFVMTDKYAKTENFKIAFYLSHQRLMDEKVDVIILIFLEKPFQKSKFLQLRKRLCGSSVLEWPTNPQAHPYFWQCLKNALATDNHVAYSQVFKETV
readout-kind: EC50 (µM)
Give the value in µM but do not write µM after it.

Q: Report the value of EC50 obtained on Toll-like receptor 7 (Homo sapiens) for CCCCNc1nc(N)nc2cnn(Cc3ccccc3OC)c12 .
Ans: 0.384

----------
test: AUClast in Balb/c mouse at 0.5 mg/kg, iv measured after 2 hrs by LC-MS analysis; assay type: ADME, organism-based; parameters: dose 0.5 mg/kg, time 2 hrs, route iv; details: in vivo
readout-kind: AUC(0-t) at 2 h

Q: Note down AUC(0-t) at 2 h recorded for CCC[C@@H](CCO)Nc1nc(N)nc2cnn(Cc3ccc(CNC4CCOCC4)cc3OC)c12
Ans: 0.183 µM·h

----------
assay: Metabolic stability in human liver microsomes assessed as compound remaining; format: ADME, Microsome
Binary label based on Stability with cut-off 70%: below gives yes (1), not below gives no (0).

Record excerpt, results attached:
| molecule | discrete-label |
| --- | --- |
| CCCCNc1nc(N)nc2cnn(Cc3ccc(CN4CCNCC4)cc3OC)c12 | no (0) |
| CCCCNc1nc(N)nc2cnn(Cc3ccc(CN4CCOCC4)cc3OC)c12 | yes (1) |
| CCCCNc1nc(N)nc2cnn(Cc3ccc(CNC4CCC4)cc3OC)c12 | yes (1) |

Then this molecule:
Q: Answer whether the molecule CCCCNc1nc(N)nc2cnn(Cc3ccc(CN4CC5CC4CN5)cc3OC)c12 (stereo not given) has Stability strictly less than 70%
Ans: no (0)

----------
test: Drug concentration in Balb/c mouse at 0.5 mg/kg, iv measured after 5 min by LC-MS analysis; format: ADME, organism-based; settings: in vivo, read-out: Drug uptake
readout-kind: concentration at 5 min (nM)
Give the value in nM but do not write nM after it.

Q: Note down concentration at 5 min recorded for CCC[C@@H](CCO)Nc1nc(N)nc2cnn(Cc3ccc(CNC4CCOCC4)cc3OC)c12
Ans: 139

----------
test: Permeability of compound at pH 7.4 by PAMPA; format: ADME; details: read-out: permeability
readout-kind: Papp (×10⁻⁶ cm/s)
Give the value in ×10⁻⁶ cm/s but do not write ×10⁻⁶ cm/s after it.

Q: Note down Papp recorded for CCC[C@@H](CCO)Nc1nc(N)nc2cnn(Cc3ccc(CNC4CCOCC4)cc3OC)c12
Ans: 1.58

----------
Target: Toll-like receptor 7 (Mus musculus)
Sequence (P58681 whole entry): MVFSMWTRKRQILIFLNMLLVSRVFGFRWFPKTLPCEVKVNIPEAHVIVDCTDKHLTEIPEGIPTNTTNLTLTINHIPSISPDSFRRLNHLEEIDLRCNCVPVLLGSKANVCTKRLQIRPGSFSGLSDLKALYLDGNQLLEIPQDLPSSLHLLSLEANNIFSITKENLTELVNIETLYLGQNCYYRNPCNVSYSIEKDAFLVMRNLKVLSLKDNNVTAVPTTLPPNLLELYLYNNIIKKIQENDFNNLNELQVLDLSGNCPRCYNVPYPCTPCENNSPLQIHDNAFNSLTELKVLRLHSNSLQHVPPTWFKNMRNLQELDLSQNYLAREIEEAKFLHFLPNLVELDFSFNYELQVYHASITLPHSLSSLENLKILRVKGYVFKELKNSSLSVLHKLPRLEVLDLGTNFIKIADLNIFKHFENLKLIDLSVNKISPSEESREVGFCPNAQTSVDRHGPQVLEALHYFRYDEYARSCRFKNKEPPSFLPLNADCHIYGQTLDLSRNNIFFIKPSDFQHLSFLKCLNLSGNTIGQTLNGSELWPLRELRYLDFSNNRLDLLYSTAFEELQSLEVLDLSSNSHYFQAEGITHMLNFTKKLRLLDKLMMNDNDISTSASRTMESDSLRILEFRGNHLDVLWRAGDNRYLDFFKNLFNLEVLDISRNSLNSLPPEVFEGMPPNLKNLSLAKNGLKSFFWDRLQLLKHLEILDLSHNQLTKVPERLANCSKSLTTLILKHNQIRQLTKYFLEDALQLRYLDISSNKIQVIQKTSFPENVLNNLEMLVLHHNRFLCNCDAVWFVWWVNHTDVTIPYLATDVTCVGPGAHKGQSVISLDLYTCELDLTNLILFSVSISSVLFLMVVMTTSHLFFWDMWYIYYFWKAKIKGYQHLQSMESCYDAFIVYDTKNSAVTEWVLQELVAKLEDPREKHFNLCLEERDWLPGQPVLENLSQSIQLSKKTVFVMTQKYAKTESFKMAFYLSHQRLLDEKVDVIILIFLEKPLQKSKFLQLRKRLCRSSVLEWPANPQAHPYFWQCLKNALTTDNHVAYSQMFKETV
pIC50: −log10 of the molar value.
Below, each entry is listed alongside its reported pIC50.

| substance-smiles | readout-kind | result |
| --- | --- | --- |
| CCCCOc1nc(N)nc2cnn(Cc3ccc(CNC4CCOCC4)cc3OC)c12 | pIC50 | < 5.30 |

Q: Note down pIC50 recorded for COc1cc(CNC2CCOCC2)ccc1Cn1ncc2nc(N)nc(N[C@@H](C)CCO)c21
Ans: < 5.30

Q: Note down pIC50 recorded for CCCCN(C)c1nc(N)nc2cnn(Cc3ccc(CNC4CCOCC4)cc3OC)c12
Ans: < 5.30
